Sourced from patent US20180250358A1

# Test Target: T1, GHRH receptor of human pituitary membranes (human, UniProt Q02643)
# T1 sequence: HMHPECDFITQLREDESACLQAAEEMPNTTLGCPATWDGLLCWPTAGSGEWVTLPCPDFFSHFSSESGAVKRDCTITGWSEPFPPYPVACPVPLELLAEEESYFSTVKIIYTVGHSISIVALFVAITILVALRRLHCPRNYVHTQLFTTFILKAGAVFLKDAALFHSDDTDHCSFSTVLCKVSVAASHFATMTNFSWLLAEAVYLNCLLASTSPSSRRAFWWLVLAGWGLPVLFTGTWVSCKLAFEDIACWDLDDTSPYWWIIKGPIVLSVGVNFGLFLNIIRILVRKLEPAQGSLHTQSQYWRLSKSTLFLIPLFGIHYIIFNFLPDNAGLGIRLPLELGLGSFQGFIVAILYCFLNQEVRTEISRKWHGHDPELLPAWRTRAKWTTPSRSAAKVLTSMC
# Run Description: competition vs 125I-JV-1-42, human pituitary membranes;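 note: pituitaries used were normal human glands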
Non-standard residues stand in square brackets, D forms with d. No end group written: not given here. *: point of attachment. Phe(F5) = N[C@@H](Cc1c(F)c(F)c(F)c(F)c1F)C(=O)O; NMeY = CN[C@@H](Cc1ccc(O)cc1)C(=O)O; Agmatine = N=C(N)NCCCCN*; Nle = CCCC[C@H](N)C(=O)O; Orn = NCCC[C@H](N)C(=O)O; Abu = CC[C@H](N)C(=O)O; GABA = NCCCC(=O)O
Assign class 1 to entries whose relative affinity (binding potency) vs JI-38 meets or exceeds 4 vs JI-38=1; assign class 0 to the rest.

Worked examples follow.
Binder: YADAIFTNSYRKVLGQLSARKLLQDIMSRQ (Dat^1; D-Ala^2; Fpa5^6; Orn^12; Abu^15; Orn^21; Nle^27; Gab^30 (in place of Gln^30); C-terminal -NH2) [P-25502 [Dat^1, D-Ala^2, Fpa5^6, Orn^12, Abu^15, Orn^21, Nle^27, Gab^30]hGHRH(1-30)NH2]
Qualitative Label: class 1
--
Binder: [NMeY][dA]DAIFTNSYR[Orn]VL[Abu]QLSAR[Orn]LLQDI[Nle]D[Agmatine] [P-20367 [N-Me-Tyr^1, D-Ala^2, Orn^12, Abu^15, Orn^21, Nle^27, Asp^28, Agm^29]hGHRH(1-29)NH2]
Qualitative Label: class 0
--
Binder: [NMeY]ADAIFTQSYR[Orn]VL[Abu]QLSAR[Orn]LLQDI[Nle]D[Agmatine] [P-20356 [N-Me-Tyr^1, Gln^8, Orn^12, Abu^15, Orn^21, Nle^27, Asp^28, Agm^29]hGHRH(1-29)NH2]
Qualitative Label: class 1
--
Binder: [NMeY]ADAIFTQSYR[Orn]VL[Abu]QLSAR[Orn]LLQDI[Nle]SRQ-{GABA-NH2} [P-29703 [N-Me-Tyr^1, Gln^8, Orn^12, Abu^15, Orn^21, Nle^27, Gln-Gab^30]hGHRH(1-30)NH2]
Qualitative Label: class 0

Exercise: Decide: is the reported value of relative affinity (binding potency) vs JI-38 for [NMeY][dA]DAI[Phe(F5)]TNSYR[Orn]VL[Abu]QLSAR[Orn]LLQDI[Nle]DR-NHMe [P-27404 [N-Me-Tyr^1, D-Ala^2, Fpa5^6, Orn^12, Abu^15, Orn^21, Nle^27, Asp^28]hGHRH(1-29)NH-CH3] equal to or greater than 4 vs JI-38=1?
Key: class 1
